B1: glmS ribozyme (parent)
chain: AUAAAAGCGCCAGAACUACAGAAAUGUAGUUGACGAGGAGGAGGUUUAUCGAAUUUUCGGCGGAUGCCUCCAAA

Variants of: B1
assay notes: self-cleavage kobs at 40 uM GlcN6P; higher = faster cleavage; RNA array
conditions used: with glucosamine-6-phosphate
Variants at the floor of the assay were thinned out.
observation type: self-cleavage kobs at 40 uM GlcN6P

In [3]: df
Out[3]:
                      change   test_result
 0            G44U C50U C67G   < 1e-05 s⁻¹
 1                 A12U U54G   0.00183 s⁻¹
 2  U31G G44A G51U C61U C70G   < 1e-05 s⁻¹
 3            G51C C61U G62C   < 1e-05 s⁻¹
 4            U31A G43C U54G   < 1e-05 s⁻¹
 5            A14C U31G A39U  0.000119 s⁻¹
 6                 C16A A36G   < 1e-05 s⁻¹
 7                 U30A C67A  4.92e-05 s⁻¹
 8                 C34A C68U   < 1e-05 s⁻¹
 9                 C10G U47G   < 1e-05 s⁻¹
10                 G37A G62A   < 1e-05 s⁻¹
11            A39C G40C U47C   < 1e-05 s⁻¹
12                  A6G G60A   < 1e-05 s⁻¹
13       A14G A15G A33G G40U   < 1e-05 s⁻¹
14             C8U A64G C68U   < 1e-05 s⁻¹
15                 U47G G62A   < 1e-05 s⁻¹
16            G43C U56A C61G   < 1e-05 s⁻¹
17                 G44A G62A   < 1e-05 s⁻¹
18                 U46G A53U  0.000116 s⁻¹
19                   G7A C8U   < 1e-05 s⁻¹
20            A14C U49A G63A   < 1e-05 s⁻¹
21                      U56A  0.000397 s⁻¹
22                 U46C C50G   < 1e-05 s⁻¹
23            A15G A36G G44U   < 1e-05 s⁻¹
